This section presents molecules with their documented z-score values.
assay: FRG1 promoter luciferase signal modulators, primary screen, FRG1 inhibition for FSHD, cell-based, C2C12 myotubes, firefly/Renilla luciferase, luminescence (AID 1084); conditions: higher = more signal, called active from +8 up or from −8 down
quantity name: z-score

> print(dat)
                                   molecule  quantity.name  obs.value
1  C[C@@H](c1ccccc1)N1C(=O)[C@H]2[C@H]3[C@H](O)[C@H](O)CC(=NNC(=O)OCc4ccccc4)[C@H]3CC[C@H]2C1=O        z-score     0.0168
2  COc1ccc([Si](C)(C)[C@H]2[C@H](CCO)O[C@@]3(C(=O)N(Cc4cccc(NC(=O)[C@H](C)O)c4)c4ccccc43)[C@@H]2C)cc1        z-score      -2.68
3  COc1ccc(O[C@H]2C=C[C@@H](c3ccccc3)O[C@@H]2CON=C[C@@H](C)[C@H](OCc2ccccc2)C(C)C)cc1        z-score      -1.01
4  CC(C)[C@@H](OCc1ccccc1)[C@H](C)C=NOC[C@@H](C)[C@H](OCc1ccccc1)C(C)C        z-score     -0.108
5  COc1cccc([C@H]2Oc3ccc(OC)cc3C(=NO[C@H](C)c3cn([C@@H]4COC[C@H]4O)nn3)[C@@H]2O)c1        z-score      0.253
6  O=C1[C@H]2[C@H]3[C@H](O)[C@H](O)CC(=NO[C@@H]4O[C@H](CO)[C@@H](O)[C@H](O)[C@H]4O)[C@H]3CC[C@H]2C(=O)N1Cc1ccccc1        z-score      0.632
7  COc1ccc(O[C@H]2C=C[C@@H](c3ccccc3)O[C@@H]2COC(=O)CCC(C)=NOC(C)CN2CCCCc3nc(C)c(C)cc32)cc1 (some centres not stated)        z-score      0.766

====

target: NADPH oxidase 4 (Homo sapiens) (UniProt Q9NPH5); assay: NOX4-dependent H2O2 signal modulators, primary screen, NOX inhibitor project, cell-based, HEK293-NOX4, tetracycline-induced, Amplex Red fluorescence (AID 1160); conditions: 45 min, higher = more signal, called active from +8 up or from −8 down
Sequence (Q9NPH5 whole entry, looked up): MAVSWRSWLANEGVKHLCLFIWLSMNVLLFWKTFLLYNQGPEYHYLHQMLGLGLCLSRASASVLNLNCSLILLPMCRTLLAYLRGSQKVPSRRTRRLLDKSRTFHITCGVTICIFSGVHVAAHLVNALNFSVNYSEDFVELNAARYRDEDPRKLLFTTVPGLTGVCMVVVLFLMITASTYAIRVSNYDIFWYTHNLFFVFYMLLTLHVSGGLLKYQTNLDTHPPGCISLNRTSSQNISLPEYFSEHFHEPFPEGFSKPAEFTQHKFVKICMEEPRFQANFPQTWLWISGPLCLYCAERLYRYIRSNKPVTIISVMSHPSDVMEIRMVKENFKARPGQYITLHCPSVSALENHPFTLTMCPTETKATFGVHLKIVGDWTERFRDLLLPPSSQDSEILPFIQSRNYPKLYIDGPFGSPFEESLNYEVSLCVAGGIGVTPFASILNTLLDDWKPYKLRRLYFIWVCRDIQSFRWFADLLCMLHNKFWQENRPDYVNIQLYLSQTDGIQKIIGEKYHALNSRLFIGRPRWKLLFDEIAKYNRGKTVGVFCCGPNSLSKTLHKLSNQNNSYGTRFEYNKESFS

smiles string	z-score
COCCOC(=O)N1C(=O)[C@@]2(c3cc(C#Cc4ccc(OC)cc4)ccc31)[C@H](C(=O)N1CCN(c3ncccn3)CC1)[C@H]1C(=O)O[C@H](c3ccccc3)[C@H](c3ccccc3)N1[C@@H]2c1ccc(OCCO)cc1	0.337
COc1ccc([Si](C)(C)[C@@H]2[C@@H](CC(=O)N3CCC[C@H]3CO)O[C@]3(C(=O)N(Cc4cccc(N5CCC5=O)c4)c4ccccc43)[C@H]2C)cc1	1.29
COc1ccc(O[C@H]2C=C[C@@H](c3ccccc3)O[C@@H]2COC(=O)N2CCCCC2)cc1	0.334

====

target: Torsin-1A (Homo sapiens); assay: torsin A binders from cell lysate, primary screen, small-molecule microarray, wild-type, 635/667 nm (AID 1149); conditions: COS7 hTOR1A-WT lysate, 635 nm fluorescence, higher = more signal
This section presents molecules with their documented composite z-score values.
quantity name: composite z-score

> print(dat)
                                   molecule           target.of.assay  obs.value
1  CC(C)CON=C1C[C@@H](O)[C@@H](O)[C@@H]2[C@@H]3C(=O)N(C[C@@H]4CCCO4)C(=O)[C@@H]3CC[C@H]12  Torsin-1A (Homo sapiens)     0.0672
2  O=C1[C@H]2[C@H]3[C@H](O)[C@H](O)CC(=NO[C@@H]4O[C@H](CO)[C@@H](O)[C@H](O)[C@H]4O)[C@@H]3CC[C@H]2C(=O)N1Cc1ccccc1  Torsin-1A (Homo sapiens)     -0.333
3  CCN1C(=O)[C@H]2[C@H]3[C@H](O)[C@H](O)CC(=NOC(C)CN4CCCCc5nc(C)c(C)cc54)[C@@H]3CC[C@H]2C1=O (some centres not stated)  Torsin-1A (Homo sapiens)      0.763
4  CC(CCN1CCc2nc(-c3ccccc3)c(-c3ccccc3)cc2C1)=NO[C@@H](C)c1cn([C@H](CO)Cc2ccccc2)nn1  Torsin-1A (Homo sapiens)       1.62
5  CCc1cc2c(nc1CC)CCN(CCC(C)=NOC(C)CN1CCCc3nc(C)c(C)cc31)C2 (configuration not stated)  Torsin-1A (Homo sapiens)       1.31
6  CCOC(=O)C1=CC[C@H]2C(=O)N(CC)C(=O)[C@@H]12  Torsin-1A (Homo sapiens)      0.483
7  COc1ccccc1CN1C(=O)c2ccccc2[C@@H](C(=O)NCC(F)(F)F)[C@@H]1c1ccc(CO)cc1  Torsin-1A (Homo sapiens)      0.156
